All figures here come from patent US7579356B2.

EXPERIMENTAL_TARGET: Lyn kinase (human) (Homo sapiens)
Construct: purchased Upstate Biotechnology, Lake Placid, N.Y
Sequence (P07948 whole entry): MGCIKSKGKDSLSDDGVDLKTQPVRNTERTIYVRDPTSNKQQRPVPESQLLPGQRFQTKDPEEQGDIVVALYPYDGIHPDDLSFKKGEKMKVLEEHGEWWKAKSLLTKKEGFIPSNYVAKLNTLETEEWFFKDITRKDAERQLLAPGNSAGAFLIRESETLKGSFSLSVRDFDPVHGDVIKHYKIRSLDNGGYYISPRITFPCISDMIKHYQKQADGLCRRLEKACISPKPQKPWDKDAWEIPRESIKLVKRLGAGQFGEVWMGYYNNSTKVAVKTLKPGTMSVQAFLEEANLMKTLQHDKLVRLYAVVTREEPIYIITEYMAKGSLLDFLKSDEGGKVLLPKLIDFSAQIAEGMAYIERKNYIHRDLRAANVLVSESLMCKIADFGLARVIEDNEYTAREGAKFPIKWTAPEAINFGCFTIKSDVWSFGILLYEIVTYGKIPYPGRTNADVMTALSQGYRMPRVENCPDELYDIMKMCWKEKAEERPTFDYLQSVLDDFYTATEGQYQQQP
PROTOCOL_DESCRIPTION: Lyn Kinase Assay
Format: biochemical
EXPERIMENTAL_SETUP: test concentration of 2 μM
PROPERTY: inhibition at 2 µM (%)

compound="CN(Cc1ccc(NC(=O)c2sc3ncnc4c3c2NC(=O)N4c2cc(OCc3cccc(F)c3)c(Cl)cc2Cl)cc1)C[C@H]1CCCO1 [Cpd 59]" property="inhibition at 2 µM" unit_descriptor=% number=8
compound="O=C(Nc1ccc(CN2CCOCC2)cc1)c1sc2ncnc3c2c1NC(=O)N3c1ccc(Oc2ccccc2)c(F)c1 [Cpd 113]" property="inhibition at 2 µM" unit_descriptor=% number=60
compound="COc1cc(N2C(=O)Nc3c(C(=O)Nc4ccc(OCCN5CCOCC5)c(OC)c4)sc4ncnc2c34)c(Cl)cc1Cl [Cpd 34]" property="inhibition at 2 µM" unit_descriptor=% number=10
compound="O=C(O)c1sc2ncnc3c2c1NC(=O)N3c1ccc(Br)cc1F [Cpd 40]" property="inhibition at 2 µM" unit_descriptor=% number=-5
compound="O=C(Nc1ccc(CN2CCOCC2)cc1)c1sc2ncnc3c2c1NC(=O)N3c1ccc(Oc2ccc(F)cc2)cc1 [Cpd 110]" property="inhibition at 2 µM" unit_descriptor=% number=21
compound="O=C(Nc1ccc(CN2CCCCC2)cc1)c1sc2ncnc3c2c1NC(=O)N3c1ccc(F)cc1Cl [Cpd 145]" property="inhibition at 2 µM" unit_descriptor=% number=83
compound="O=C(Nc1ccc(CN2CCCCC2)cc1)c1sc2ncnc3c2c1NC(=O)N3c1ccc(F)c(Br)c1 [Cpd 155]" property="inhibition at 2 µM" unit_descriptor=% number=41
compound="COc1cc(NC(=O)c2sc3ncnc4c3c2NC(=O)N4c2cc(OCc3cccc(F)c3)c(Cl)cc2Cl)ccc1OCCN1CCCCC1 [Cpd 56]" property="inhibition at 2 µM" unit_descriptor=% number=7
compound="Cc1ccc(Oc2ccc(N3C(=O)Nc4c(C(=O)Nc5ccc(CN6CCOCC6)cc5)sc5ncnc3c45)cc2C)cn1 [Cpd 119]" property="inhibition at 2 µM" unit_descriptor=% number=-47
